Recorded values, source the nanobody polyreactivity screen of Harvey et al. (2022).

# ASSAY_COMMENT: yeast display, Sf9 membrane polyspecificity reagent, FACS + sequencing; frameworks hold sequencing errors
MEASURED_METRIC: polyreactivity (PSR sort gate)

INSERT INTO measurements (sequence_content, result) VALUES
  ('QVQLVESGGGLVQAGGSLRLSCAASGRTFHSYAMGWYRQAPGKERELVAAINNGGGTYYADSVKGRFTISRDNAKNTVYLQMNSLKPEDTAVYYCAADRYRYRYNAPRYAYDYWGQGTQVTVSS', 'high polyreactivity'),
  ('QVQLVESGGGLVQAGGSLRLSCAASGSIFNGYVMGWYRQAPGKERELVAAISGSGGRTYYADSVKGRFTISRDNAKNTVYLQMNSLKPEDTAVYYCAAYPDLRDSRRIRYGYNYWGQGTQVTVSS', 'high polyreactivity'),
  ('QVQLVESGGGLVQAGGSLRLSCAASGITFSYNARGWYRQAPGKERELVAAIRVGDGSTYYADSVKGRFTISRDNAKNTVYLQMHSLKPEDTAVYYWNARYLRLRYPYTDEYNYWGQGTQVTVSS', 'low polyreactivity'),
  ('QVQLVESGGGLVQAGGSLRLRCAASGSIFFYYVMGLSRQAPGKERELVAVISSGGGSTYYADSVKGRFTISRDNAKYTVYLQMNSLKPEDTAVYYCAAGTYYKFYYWGQGTQVTESS', 'high polyreactivity'),
  ('QVQLVESGGGVVQAGGSLRLSCAASGRTIDPKAMGWYRQAPGKERELVAAITRTGVRTYYADSVKGRFTISRDNAKNTVYLQLNILKPEYTAVYYCNRYGARSNDYWGQGTQVSVSS', 'low polyreactivity'),
  ('QVQLVESGGGLVQAGGSLRLSCAAYGNIFDGNAMGWYRQAPGKERELVAAITGRGGGTYYADSVKGRFTISRDNAKNTVYLLMNSLKPEDTAVYYCNKYYYRGGMDYWGQGTQVNVSS', 'high polyreactivity'),
  ('QVQLVESGGGLVQAGGSLRLSCAASGRIFVPNAMGWYRQAPGKERELVAAITSSGSSTYYADSVKGRFTISRDNAKNTVYLQMNSLKPEDTAVYYCNTLWGGFSWFRVDSWGQGTQVTVSS', 'high polyreactivity'),
  ('QVQLVESGGGLDQAGGRLRLSSAASGYTFRNYAKGLYRQATGQERELVAAITSSTSSTYYADSVKGRFTISRDNAKNTVYLQMNSLKPEDTAVYYCNRVWSPYMDYWGQGTQVTVSS', 'high polyreactivity'),
  ('QVQLVESGGGLVQAGGSLRLSCAASGRILLRYAMGWYRQAPGQERELVAAISQRGGRTYYADSVKGRFTISRDNAKNTVNLQMNSLKPEDTAVYYCAAASQQRSPRYGYWGQGTQVTVSS', 'high polyreactivity'),
  ('QVQLVESGGGLVQAGGSLRLSCAASGSTFIDYAMGWYRQAPGKERELVASITWSGGSTYYADSVKGRFTISRDNAKNTVYLQMNSLKPEDTAVYYCNADVNVGLEVRIVYEYDYWGQGTQVTVSS', 'low polyreactivity'),
  ('QVQRVESGGGIVQARGSLRLSCAASGRIFKTNAMRCYRQSRGKERELVAAISSSGGSTYYADSVKGRFTISRDNAKNTVDLQRNSLNPEDTAVYYCAADGRTKGYDSLGQGTQVTVSS', 'high polyreactivity');

---

# ASSAY_COMMENT: yeast display, Sf9 membrane polyspecificity reagent, FACS + sequencing; frameworks hold sequencing errors
MEASURED_METRIC: polyreactivity (PSR sort gate)

INSERT INTO assay_data (sequence_content, measured_metric, result) VALUES
  ('QVQLVESGGGLVQAGGSLRLSCAASGLIFPYNAMGWYRQAPGKERELVAAIDSGVTTYYADSVKGRFTISRDNAKNTVYLQMNSLKPEDTAVYFCAADGLPGPEGDSWGQGTQVSVSS', 'polyreactivity (PSR sort gate)', 'low polyreactivity'),
  ('QVQLVESGGGIVQAGGSLRLSCAASGITFPFYTMGWYRQAPGKERELVADISSRGTSTYYADSVKGRFTISRDNAKYTVYLQMNSLNPEDTAVYYCKARATPQRAYDSWGQGTLVTVSS', 'polyreactivity (PSR sort gate)', 'high polyreactivity'),
  ('QVQLVESGGGLVQAGGSLRLSCAASGFTFYQYAMGWYRQAPGKERELVASISWSGGRTYYADSVKGRFTISRDNAKNTVYLQMNSLKPEDTAVYYCAARAYRIAGYDYWGQGTQVTVSS', 'polyreactivity (PSR sort gate)', 'high polyreactivity'),
  ('QVQLVESGGGLVQAGGSLRLSCAASGYTFNYYAMGWYRQAPGKERELVAAIRSTGSTNYADSVKGRFTISRDNAKNTVYLQMKSLKPEDTAVYYCAAKIRKDYSIQGYDYWGQGSQVTVSS', 'polyreactivity (PSR sort gate)', 'high polyreactivity'),
  ('QVQLVESGGGLVQAGGSLRLSCAASGIIIGYYAMGWYRQAPGKERELVAAISSIGGSTYYADSVKGRFTISRDNAKNTVYLQMNSLKPEDTAVYYCAAKYYGRYYRYLGSSFDYWGQGTQVTVSS', 'polyreactivity (PSR sort gate)', 'high polyreactivity'),
  ('QVQLVESGGGLVQAGGSLLLSSAPTGITFEGYSMGWSRQAPGKERELVAAIRSSGTSTYYADSVKGRFTISRDNAKNTVYLQMNSLKPDDTAVYYCNRARSSSRYDYWGQGTQVTVSS', 'polyreactivity (PSR sort gate)', 'low polyreactivity'),
  ('QVQLVESGGGLVQAGGSLRLSCSASGSTFAYYTMGWYRQAPGKERELVAAISRSGGSTYYSDSVKGRFTISRDNAKNTVYLQMNSLKPEDTAVYYCAADKHYAVIPYEYWGQVTQVTVSS', 'polyreactivity (PSR sort gate)', 'high polyreactivity'),
  ('QVQLVESGGGLVQAGGSLRLSCAASGSIFLVYAMGWYRQAPGKERELVAVISRGGITNYADSVKGRFTISGDNAKNTVYLQMNSLKPEDTAVYYCAAEPRPSWSRYTYGYWGQGTQVTVSS', 'polyreactivity (PSR sort gate)', 'low polyreactivity'),
  ('QVQLVESGGGLVQAGGSLRLSCAASGRTLAPYAMGWYRQAPGKERELVAISTIGGSTYYADSVKGRFTISRDNAKNTVFLQMNSLKPEDTAVYYCNADATDSYPEKDEHDSWGQGTQVTVSS', 'polyreactivity (PSR sort gate)', 'low polyreactivity'),
  ('QVQRVESGGGLVQAGGSLRLSCAASGIIFGSYAMGGYRQAPGKERELVAAITSIGTRTYYADSVKGRFTISRDNAKNTVYLQMNSLKPEDTAVYYCNAPRFWSRHGLRDYWGQGTQVTVSS', 'polyreactivity (PSR sort gate)', 'high polyreactivity'),
  ('QVQLVESGGGLVQAGGSLRISCAGSGSIFSRNAMGWYSQAPGTERELVAAITGSGSSTYYADSVKGRFTISRDNAKNTVYLQMNSLKPEDTAGYYCNAARVYLSEWGQGTQGTVSS', 'polyreactivity (PSR sort gate)', 'high polyreactivity');

---

# ASSAY_COMMENT: yeast display, Sf9 membrane polyspecificity reagent, FACS + sequencing; frameworks hold sequencing errors
MEASURED_METRIC: polyreactivity (PSR sort gate)

INSERT INTO assay_data (sequence_content, measured_metric, result) VALUES
  ('QVQLVESGGGLVQAGGSLRLSCAGSGRIFTDYTMGWYRQAPGQERELVAAISYSGGSTYYADSVKGRFTISRDNAKNTVYLQMNSLKPEDTAVYYCNKDYYLHEGYGYWGQGTQVTVSS', 'polyreactivity (PSR sort gate)', 'low polyreactivity'),
  ('QVQLVESGGCLVQAGGSLRLSCAASGSTLYRYVMGWYRPAPGKESELVAAISWSGTNTYADSVKGRFTISRDNAKNTVYLQMNSLKPEDTAVYYSAAAGPGYNWGYRVYAIYDYWGQGSQVTVSS', 'polyreactivity (PSR sort gate)', 'high polyreactivity'),
  ('QVPLVESVGGLVQAGGSLRISCAASGGIFRYYAMGRYRQAPGNERELVAAITSSGTSTYYADSVKGRFTISRDNAKNTVYLQMNSLKPEDTAVYYCAAETYYSIYDYWGQGTQVTVSS', 'polyreactivity (PSR sort gate)', 'high polyreactivity'),
  ('QVQLVESGGGLVQAGGSLRLSCAASGLIFRRYVMGWYRQAPGKERELVAAITSRGTRTYYADSVKGRFTISRDNAKNTVYLQMNSLKPEDTAVYYCAADGGISAGANSGYDYWGQGTQVTVSS', 'polyreactivity (PSR sort gate)', 'high polyreactivity'),
  ('QVQLVESGGGLVQAGGSLRLSCASSGSIFYRNTMGWYRQAPGKEREFVAAIRTSGGSTYYADSVKGRFTISRDNAKNTVYLQMNSLKPEDTAVYYCAAEYRYGWAYRKGGDYWGQGTQVTVSS', 'polyreactivity (PSR sort gate)', 'high polyreactivity'),
  ('QVHLVESGGGLVQAGGSLRLSGAASGSTFLEYARGWYRQAPGKERELVADISSGGGTHYADSVKGRFTISRDNAKNTVYLQMNSLKPDDTAVYYCNRDISGSSGGELDYWGQGSQVTVSS', 'polyreactivity (PSR sort gate)', 'low polyreactivity'),
  ('QVQLVESGGGLVQAGGSLRLSCAASGSIFAYNAMGWYRQAPGKEREFVAVITRSDDSTYADSVKGRFTISRDNAKNTVFLQMNRLKPEDTAVYDCAAQPFVIDGGYRGDYWGQGTQVTVSS', 'polyreactivity (PSR sort gate)', 'low polyreactivity'),
  ('QVQLVESGGGLVQAGGSLRLSCAASGYTFGPYAMGWYRQAPGKERELVAAITTRGGSTYYADSVKGRFTISRYNAKNTVYLQMNSLKPEDTAVYYCAAESIRSDDYWGQGTQVTVSS', 'polyreactivity (PSR sort gate)', 'high polyreactivity'),
  ('QVQLVESGGGLVQAGGSLRLSCAASGITFKAYVMGWYRQAPGKERELVAAITRSGGRTYYADSVKGRFTISRDNAKNTVFLQMNSLKPEDTAVYYCAADGPHHGDGYWGQGTQVTVSS', 'polyreactivity (PSR sort gate)', 'high polyreactivity'),
  ('QVQLVESGGGLFQAGVSLRLSCAASGLIFYGNAMGWYRQAPGKERELVAAITGGGGNTYYADSVKGRFTISRYYAKITVYLQMNSLKPEDTAVYYCATATSTAYVRYYYWGQGTQVTVSS', 'polyreactivity (PSR sort gate)', 'high polyreactivity'),
  ('QLQLVESGGGLVQAGGSLRLSCAASGNTFYGYTMGWYRQAPGTERELVAVISSSGGRTNYADSVKGRFTISRDNAKNTVYLQMNSLKPEDTAVYYCAARSSRLPHIYGYWGQGTQVTVSS', 'polyreactivity (PSR sort gate)', 'low polyreactivity');
